Each recorded value in this set is attributed to paper PMC7351026.

Quick list: Half-life (95% CI) per entry.
# METHOD_DESCRIPTION: Population average serum elimination rate and half-life (linear mixed model, one compartment, first-order)
# CONDITION_DETAILS: population average, model with original serum levels, age and sex as covariates
Marks after values point to notes of the source that are not given here.
REPORTED_ENDPOINT: Half-life (95% CI)

| MOLECULE | REPORTED_ENDPOINT | TEST_RESULT |
| --- | --- | --- |
| O=S(=O)(O)C(F)(F)C(F)(F)C(F)(F)C(F)(F)C(F)(F)F | Half-life (95% CI) | 0.63 (0.46, 1.01) year |
| O=S(=O)(O)C(F)(C(F)(F)F)C(F)(F)C(F)(F)C(F)(F)C(F)(F)C(F)(F)C(F)(F)F (stereo not drawn) [1m-PFOS, perfluoro-1-methylheptanesulfonate] | Half-life (95% CI) | 1.27 (0.69, 7.64) year |
| O=S(=O)(O)C(F)(F)C(F)(F)C(F)(F)C(F)(F)C(F)(F)C(F)(F)C(F)(F)F | Half-life (95% CI) | 1.46 (0.83, 6.25) year |
| O=S(=O)(O)C(F)(F)C(F)(F)C(F)(F)C(F)(F)C(F)(F)C(F)(F)C(F)(F)C(F)(F)F | Half-life (95% CI) | 2.91 (1.71, 9.63) year |
| O=S(=O)(O)C(F)(F)C(F)(F)C(F)(F)C(F)(F)F | Half-life (95% CI) | 0.12 (0.1, 0.15)^d year |
| O=C(O)C(F)(F)C(F)(F)C(F)(F)C(F)(F)C(F)(F)F | Half-life (95% CI) | 1.63 (NA) year |
